- Experimental Target: human T1R2+T1R3 receptor (Homo sapiens, UniProt Q7RTX0)
- Construct: expressed in transfected cells; host or cells: HEK293E
- Sequence (Q7RTX0 21-852): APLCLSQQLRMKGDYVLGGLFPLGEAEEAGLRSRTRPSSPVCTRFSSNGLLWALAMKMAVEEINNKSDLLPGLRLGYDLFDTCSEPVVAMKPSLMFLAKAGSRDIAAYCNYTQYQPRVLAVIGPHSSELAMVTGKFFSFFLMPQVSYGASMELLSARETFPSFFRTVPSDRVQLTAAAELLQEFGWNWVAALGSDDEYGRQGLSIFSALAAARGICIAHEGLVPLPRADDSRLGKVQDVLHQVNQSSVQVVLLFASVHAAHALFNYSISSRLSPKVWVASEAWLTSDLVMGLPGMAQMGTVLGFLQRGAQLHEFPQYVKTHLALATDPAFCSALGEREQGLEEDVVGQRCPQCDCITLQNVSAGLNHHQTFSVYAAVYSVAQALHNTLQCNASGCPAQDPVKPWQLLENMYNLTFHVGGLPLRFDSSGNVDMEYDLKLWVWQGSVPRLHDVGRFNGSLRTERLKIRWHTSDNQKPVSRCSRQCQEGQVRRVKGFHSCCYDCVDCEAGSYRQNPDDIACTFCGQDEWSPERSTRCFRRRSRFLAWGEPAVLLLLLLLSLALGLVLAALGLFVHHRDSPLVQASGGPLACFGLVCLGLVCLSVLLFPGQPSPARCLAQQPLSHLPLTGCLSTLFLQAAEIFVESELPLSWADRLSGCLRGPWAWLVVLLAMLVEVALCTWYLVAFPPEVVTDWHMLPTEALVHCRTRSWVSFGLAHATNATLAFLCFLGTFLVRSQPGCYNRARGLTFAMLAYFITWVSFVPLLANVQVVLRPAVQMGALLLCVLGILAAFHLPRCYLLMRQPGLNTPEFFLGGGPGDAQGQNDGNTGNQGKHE
- Sequence (Q8TE23 20-839 partner): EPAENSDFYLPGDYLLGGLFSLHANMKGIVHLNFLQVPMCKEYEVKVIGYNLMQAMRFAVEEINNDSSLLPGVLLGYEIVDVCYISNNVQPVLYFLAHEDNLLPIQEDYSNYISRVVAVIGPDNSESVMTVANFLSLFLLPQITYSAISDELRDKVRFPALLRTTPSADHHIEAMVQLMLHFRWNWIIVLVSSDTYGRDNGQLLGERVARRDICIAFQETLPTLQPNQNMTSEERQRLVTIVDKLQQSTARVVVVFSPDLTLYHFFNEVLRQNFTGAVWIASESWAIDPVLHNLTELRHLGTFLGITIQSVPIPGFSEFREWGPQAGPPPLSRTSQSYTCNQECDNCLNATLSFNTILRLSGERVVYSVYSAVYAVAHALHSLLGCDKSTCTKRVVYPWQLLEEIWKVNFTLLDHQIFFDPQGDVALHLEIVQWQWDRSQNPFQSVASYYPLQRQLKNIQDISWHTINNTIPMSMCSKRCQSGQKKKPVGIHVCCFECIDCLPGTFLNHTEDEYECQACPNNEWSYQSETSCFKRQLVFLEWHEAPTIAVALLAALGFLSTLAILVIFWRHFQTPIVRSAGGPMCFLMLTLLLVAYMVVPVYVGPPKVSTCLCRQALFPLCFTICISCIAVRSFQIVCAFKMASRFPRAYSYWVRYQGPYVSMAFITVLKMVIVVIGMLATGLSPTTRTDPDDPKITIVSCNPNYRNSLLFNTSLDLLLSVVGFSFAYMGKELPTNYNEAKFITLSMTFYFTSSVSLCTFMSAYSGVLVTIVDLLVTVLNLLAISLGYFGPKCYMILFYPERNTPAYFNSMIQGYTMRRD
- Experiment Description: Heterologous calcium mobilization assay, HEK293 cells expressing human sweet receptor
- Format: cell-based
pIC50: −log10 of the molar value.
// reported pIC50 for each item listed
Property Label: pIC50

Compound: Cc1cc(Cl)ccc1OC(C)C(=O)O (stereo not shown)
Experimental Target: human T1R2+T1R3 receptor (Homo sapiens, UniProt Q7RTX0)
Result Value: 4.92 to 5.30

Compound: O=C(O)Cc1ccccc1
Experimental Target: human T1R2+T1R3 receptor (Homo sapiens, UniProt Q7RTX0)
Result Value: ≤ 3.85

Compound: CC(Oc1cc(Cl)c(Cl)cc1Cl)C(=O)O (stereo not shown)
Experimental Target: human T1R2+T1R3 receptor (Homo sapiens, UniProt Q7RTX0)
Result Value: 4.92 to 5.30

Compound: O=C(O)COc1ccc(Cl)cc1
Experimental Target: human T1R2+T1R3 receptor (Homo sapiens, UniProt Q7RTX0)
Result Value: ≤ 3.85
